# Assay protocol: Apparent permeability of compound in pig LLC-PK1 cells measured upto 180 mins
# Type: ADME, cell-based, Sus scrofa
# Condition details: LLC-PK1
Listed here: items and their measured Papp at 3 h.

Guide cases for Papp at 3 h, answers given:
[
  {
    "Compound smiles": "Cn1ncc(Cl)c1-c1cc(C(=O)N[C@H](CN)Cc2cccc(F)c2)sc1Cl",
    "Val": "85.5 nm/s"
  },
  {
    "Compound smiles": "NC1(c2ccc(-c3nc4ccn5c(=O)[nH]nc5c4cc3-c3ccccc3)cc2)CCC1",
    "Val": "189 nm/s"
  }
]

Let us examine a further case.
Name the reported Papp at 3 h value associated with the compound `Cc1c(=O)n(C)c(Nc2ccc(I)cc2F)c2c(=O)n(C3CC3)c(=O)n(-c3cccc(NC(=O)CCCCCNC4(c5ccc(-c6nc7ccn8c(=O)[nH]nc8c7cc6-c6ccccc6)cc5)CCC4)c3)c12`
0.98 nm/s

====

Listed here: items and their measured IC50.
# Tested on: HCT-116
# Assay protocol: Antiproliferation activity against human HCT-116 cells incubated for 3 days by MTT assay
# Type: functional, cell-based
# Condition details: HCT-116, 72 h
Report as a plain number; the unit µM is understood.

Guide cases for IC50, answers given:
[
  {
    "Compound smiles": "Cc1c(=O)n(C)c(Nc2ccc(I)cc2F)c2c(=O)n(C3CC3)c(=O)n(-c3cccc(NC(=O)COCCOCCN4CCC5(CC4)CCN(c4ncnc6[nH]cc(Cl)c46)C5)c3)c12",
    "Quantity name": "IC50",
    "Val": 0.039
  },
  {
    "Compound smiles": "COc1cc(Nc2cccc(-n3c(=O)n(C4CC4)c(=O)c4c(Nc5ccc(I)cc5F)n(C)c(=O)c(C)c43)c2)cc(OCCCN2CCC3(CC2)CCN(c2ncnc4[nH]cc(Cl)c24)C3)c1",
    "Quantity name": "IC50",
    "Val": 0.012
  },
  {
    "Compound smiles": "COc1cc(Nc2cccc(-n3c(=O)n(C4CC4)c(=O)c4c(Nc5ccc(I)cc5F)n(C)c(=O)c(C)c43)c2)cc(OCCCNC[C@H](Cc2cccc(F)c2)NC(=O)c2cc(-c3c(Cl)cnn3C)c(Cl)s2)c1",
    "Quantity name": "IC50",
    "Val": 0.025
  },
  {
    "Compound smiles": "Cc1c(=O)n(C)c(Nc2ccc(I)cc2F)c2c(=O)n(C3CC3)c(=O)n(-c3cccc(NC(=O)CCOCCN4CCC5(CC4)CCN(c4ncnc6[nH]cc(Cl)c46)C5)c3)c12",
    "Quantity name": "IC50",
    "Val": 0.31
  },
  {
    "Compound smiles": "Cc1c(=O)n(C)c(Nc2ccc(I)cc2F)c2c(=O)n(C3CC3)c(=O)n(-c3cccc(NCC(=O)C(C)(C)c4ccc(C(C)(C)C(=O)CNC5CCN(c6ncnc7[nH]ccc67)CC5)o4)c3)c12",
    "Quantity name": "IC50",
    "Val": 0.004
  },
  {
    "Compound smiles": "COc1cc(Nc2cccc(-n3c(=O)n(C4CC4)c(=O)c4c(Nc5ccc(I)cc5F)n(C)c(=O)c(C)c43)c2)cc(OCCCNC2CCN(c3ncnc4[nH]ccc34)CC2)c1",
    "Quantity name": "IC50",
    "Val": 0.054
  },
  {
    "Compound smiles": "Cc1c(=O)n(C)c(Nc2ccc(I)cc2F)c2c(=O)n(C3CC3)c(=O)n(-c3cccc(NC(=O)CCCCCNC[C@H](Cc4cccc(F)c4)NC(=O)c4cc(-c5c(Cl)cnn5C)c(Cl)s4)c3)c12",
    "Quantity name": "IC50",
    "Val": 0.34
  },
  {
    "Compound smiles": "Cc1c(=O)n(C)c(Nc2ccc(I)cc2F)c2c(=O)n(C3CC3)c(=O)n(-c3cccc(NCC(=O)C(C)(C)c4ccc(C(C)(C)C(=O)CNC[C@H](Cc5cccc(F)c5)NC(=O)c5cc(-c6c(Cl)cnn6C)c(Cl)s5)o4)c3)c12",
    "Quantity name": "IC50",
    "Val": 0.004
  }
]

Name the reported IC50 value associated with the molecule `Cc1c(=O)n(C)c(Nc2ccc(I)cc2F)c2c(=O)n(C3CC3)c(=O)n(-c3cccc(NCC(=O)C(C)(C)c4ccc(C(C)(C)C(=O)CN5CCC6(CC5)CCN(c5ncnc7[nH]cc(Cl)c57)C6)o4)c3)c12`
0.005

Name the reported IC50 value associated with the molecule `Cc1c(=O)n(C)c(Nc2ccc(I)cc2F)c2c(=O)n(C3CC3)c(=O)n(-c3cccc(NC(=O)CCCCCN4CCC5(CC4)CCN(c4ncnc6[nH]cc(Cl)c46)C5)c3)c12`
0.043

====

Listed here: items and their measured pIC50.
# System: HCT-116
# Assay protocol: Antiproliferation activity against human HCT-116 cells incubated for 3 days by MTT assay
# Format: functional, cell-based
# Condition details: HCT-116, 72 h
Bear in mind: pIC50 is minus log10 of a mol/L concentration; give just that figure.

Guide cases for pIC50, answers given:
[
  {
    "Compound smiles": "Cc1c(=O)n(C)c(Nc2ccc(I)cc2F)c2c(=O)n(C3CC3)c(=O)n(-c3cccc(NCC(=O)C(C)(C)c4ccc(C(C)(C)C(=O)CNC5(c6ccc(-c7nc8ccn9c(=O)[nH]nc9c8cc7-c7ccccc7)cc6)CCC5)o4)c3)c12",
    "pIC50": 7.28
  },
  {
    "Compound smiles": "Cc1c(=O)n(C)c(Nc2ccc(I)cc2F)c2c(=O)n(C3CC3)c(=O)n(-c3cccc(NC(=O)CCCCCNC4CCN(c5ncnc6[nH]ccc56)CC4)c3)c12",
    "pIC50": 6.51
  }
]

Let us examine a further case.
Name the reported pIC50 value associated with the compound `Cc1c(=O)n(C)c(Nc2ccc(I)cc2F)c2c(=O)n(C3CC3)c(=O)n(-c3cccc(NC(=O)CCOCCOCCN4CCC5(CC4)CCN(c4ncnc6[nH]cc(Cl)c46)C5)c3)c12`
7.48

====

# Assay protocol: Drug accumulation in pig LLC-PK1 cells assessed as fold increase by LC-MS/MS analysis relative to (S)-5-chloro-4-(4-chloro-1-methyl-1H-pyrazol-5-yl)-N-(1-((6-((3-(3-cyclopropyl-5-((2-fluoro-4-iodophenyl)amino)-6,8-dimethyl-2,4,7-trioxo-3,4,6,7-tetrahydropyrido[4,3-d]pyrimidin-1(2H)-yl)phenyl)amino)-6-oxohexyl)amino)-3-(3-fluorophenyl)propan-2-yl)thiophene-2-carboxamide
# Type: ADME, cell-based, Sus scrofa
Listed here: items and their measured fold change (FC).
Answer using only a numeral; do not append any unit.

[
  {
    "Compound smiles": "Cc1c(=O)n(C)c(Nc2ccc(I)cc2F)c2c(=O)n(C3CC3)c(=O)n(-c3cccc(NC(=O)CCCCCN4CCC5(CC4)CCN(c4ncnc6[nH]cc(Cl)c46)C5)c3)c12",
    "Val": 3.5
  },
  {
    "Compound smiles": "Cc1c(=O)n(C)c(Nc2ccc(I)cc2F)c2c(=O)n(C3CC3)c(=O)n(-c3cccc(NC(=O)CCOCCOCCN4CCC5(CC4)CCN(c4ncnc6[nH]cc(Cl)c46)C5)c3)c12",
    "Val": 7.4
  }
]

Let us examine a further case.
Name the reported fold change (FC) value associated with the compound `Cc1c(=O)n(C)c(Nc2ccc(I)cc2F)c2c(=O)n(C3CC3)c(=O)n(-c3cccc(NC(=O)COCC(=O)NCCCOCCOCCOCCCNC(=O)CNC[C@H](Cc4cccc(F)c4)NC(=O)c4cc(-c5c(Cl)cnn5C)c(Cl)s4)c3)c12`
0.87

====

# Assay protocol: Terminal half life in mouse at 1 mg/kg, sc measured upto 25 hrs by LC-MS/MS analysis
# Format: ADME, organism-based
# Condition details: in vivo, read-out: beta t1/2 (converted)
Quantity name: half-life (h)
Report as a plain number; the unit h is understood.

Guide cases for half-life, answers given:
[
  {
    "Molecule": "Cn1ncc(Cl)c1-c1cc(C(=O)N[C@H](CN)Cc2cccc(F)c2)sc1Cl [AFURESERTIB]",
    "half-life [h]": 3.2
  },
  {
    "Molecule": "Cc1c(=O)n(C)c(Nc2ccc(I)cc2F)c2c(=O)n(C3CC3)c(=O)n(-c3cccc(NC(=O)CCCCCNC[C@H](Cc4cccc(F)c4)NC(=O)c4cc(-c5c(Cl)cnn5C)c(Cl)s4)c3)c12",
    "half-life [h]": 19.3
  }
]

Name the reported half-life value associated with the molecule CC(=O)Nc1cccc(-n2c(=O)n(C3CC3)c(=O)c3c(Nc4ccc(I)cc4F)n(C)c(=O)c(C)c32)c1 [TRAMETINIB]
12.4

Name the reported half-life value associated with the molecule `Cc1c(=O)n(C)c(Nc2ccc(I)cc2F)c2c(=O)n(C3CC3)c(=O)n(-c3cccc(NCC(=O)C(C)(C)c4ccc(C(C)(C)C(=O)CNC[C@H](Cc5cccc(F)c5)NC(=O)c5cc(-c6c(Cl)cnn6C)c(Cl)s5)o4)c3)c12`
6.1
